# Test parameters: in ethyl acetate, 308.15 K
Measurement kind: solubility (mole fraction)
One number for each entry.

Cc1ccccc1S(N)(=O)=O; 0.0687

For Cc1ccc(S(N)(=O)=O)cc1 , what is its reported solubility (mole fraction)?
0.114

###

# Test parameters: in ethyl acetate, 298.15 K
Measurement kind: solubility (mole fraction)
One number for each entry.

Cc1ccc(S(N)(=O)=O)cc1; 0.0946

Entry Cc1ccccc1S(N)(=O)=O has what solubility (mole fraction)?
0.0604

###

# Test parameters: in n-butanol, 313.15 K
Measurement kind: solubility (mole fraction)
Give bare numbers.

Cc1ccc(S(N)(=O)=O)cc1; 0.0501

Any idea what solubility (mole fraction) was measured for Cc1ccccc1S(N)(=O)=O ?
0.0382

###

# Test parameters: in acetonitrile, 308.15 K
Measurement kind: solubility (mole fraction)
Numbers only.

Cc1ccccc1S(N)(=O)=O; 0.0597

Attention now turns to another entry.
What value of solubility (mole fraction) has been reported for the following compound? Cc1ccc(S(N)(=O)=O)cc1
0.13

###

# Test parameters: in n-propanol, 313.15 K
Exercise: state measured solubility (mole fraction) for each of the compounds provided.
One number for each entry.

Could I get solubility (mole fraction) for every one of these entries?
1. Cc1ccccc1S(N)(=O)=O
2. Cc1ccc(S(N)(=O)=O)cc1

1. 0.0394
2. 0.0611

###

# Test parameters: in isopropanol, 288.15 K
Record form. Attribute: solubility (mole fraction). Fill in for each entry.
Answers are plain numbers.

Please report solubility (mole fraction) for every entry that follows.
1. Cc1ccc(S(N)(=O)=O)cc1
2. Cc1ccccc1S(N)(=O)=O

1. 0.0232
2. 0.022

###

Kindly state solubility (mole fraction) for each of the entries shown.
# Test parameters: in methanol, 283.15 K
Numbers only.

Cc1ccccc1S(N)(=O)=O; 0.0277

Please report the recorded solubility (mole fraction) for Cc1ccc(S(N)(=O)=O)cc1 .
0.0441

###

# Test parameters: in methanol, 303.15 K
Measurement kind: solubility (mole fraction)

Cc1ccc(S(N)(=O)=O)cc1; 0.073

We next turn to a different compound, shown below.
Field request: solubility (mole fraction) | item: Cc1ccccc1S(N)(=O)=O
0.0425

###

Give solubility (mole fraction) for every item shown.
# Test parameters: in n-butanol, 288.15 K
One number for each entry.

Cc1ccccc1S(N)(=O)=O; 0.0232

Okay, now this compound:
Which solubility (mole fraction) is listed for Cc1ccc(S(N)(=O)=O)cc1 ?
0.028

###

Could you please report measured solubility (mole fraction) for the items listed next?
# Test parameters: in isopropanol, 318.15 K
Give bare numbers.

Provide solubility (mole fraction) for all items below, preserving their order.
1. Cc1ccc(S(N)(=O)=O)cc1
2. Cc1ccccc1S(N)(=O)=O

1. 0.0509
2. 0.0414

###

# Test parameters: in isopropanol, 308.15 K
Please respond with reported solubility (mole fraction) for every item in the list.
Numbers only.

Cc1ccccc1S(N)(=O)=O; 0.0337

Now consider a different molecule.
Would you mind telling me what solubility (mole fraction) value was observed for Cc1ccc(S(N)(=O)=O)cc1 ?
0.0392

###

Task for the reader: assign each of the following molecules its reported solubility (mole fraction).
# Test parameters: in acetonitrile, 303.15 K
Give bare numbers.

Cc1ccc(S(N)(=O)=O)cc1; 0.118

Pending molecule:
Return reported solubility (mole fraction); argument: Cc1ccccc1S(N)(=O)=O
0.0534

Origin of measurements: BigSolDB 2.1
